Examples of sequences with documented PBM binding z-score follow.
Tested on: RARa homodimer (NR concentration 270 nM)
assay_protocol: PBM binding z-score (relative to random genomic background probes); higher = stronger binding; sequences stand for … in GC…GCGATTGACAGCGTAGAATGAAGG
I only need the number, thanks.

Sample answers from the record:
[[record]]
sequence_chain = "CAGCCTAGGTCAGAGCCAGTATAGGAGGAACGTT"
tested_system = "RARa homodimer (NR concentration 270 nM)"
property_measured = "PBM binding z-score"
experimental_result = 0.33

[[record]]
sequence_chain = "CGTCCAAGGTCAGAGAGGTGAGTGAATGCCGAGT"
tested_system = "RARa homodimer (NR concentration 270 nM)"
property_measured = "PBM binding z-score"
experimental_result = 0.424

[[record]]
sequence_chain = "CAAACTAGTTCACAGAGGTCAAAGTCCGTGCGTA"
tested_system = "RARa homodimer (NR concentration 270 nM)"
property_measured = "PBM binding z-score"
experimental_result = 2.73

[[record]]
sequence_chain = "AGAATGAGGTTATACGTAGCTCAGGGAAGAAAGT"
tested_system = "RARa homodimer (NR concentration 270 nM)"
property_measured = "PBM binding z-score"
experimental_result = 0.35

[[record]]
sequence_chain = "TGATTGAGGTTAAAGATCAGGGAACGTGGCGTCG"
tested_system = "RARa homodimer (NR concentration 270 nM)"
property_measured = "PBM binding z-score"
experimental_result = 0.729

[[record]]
sequence_chain = "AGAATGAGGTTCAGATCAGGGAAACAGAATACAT"
tested_system = "RARa homodimer (NR concentration 270 nM)"
property_measured = "PBM binding z-score"
experimental_result = 0.488


For the next question, use this sequence.
Data point: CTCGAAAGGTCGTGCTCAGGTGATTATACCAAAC ; PBM binding z-score = 0.268

---

Examples of sequences with documented PBM binding z-score follow.
Test system: RXRa homodimer (NR concentration 180 nM)
assay_protocol: PBM binding z-score (relative to random genomic background probes); higher = stronger binding; sequences stand for … in GC…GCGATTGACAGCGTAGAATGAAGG

[[record]]
sequence_chain = "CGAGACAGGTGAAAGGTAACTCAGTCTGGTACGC"
tested_system = "RXRa homodimer (NR concentration 180 nM)"
experimental_result = 2.11

[[record]]
sequence_chain = "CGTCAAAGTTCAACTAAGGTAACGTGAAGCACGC"
tested_system = "RXRa homodimer (NR concentration 180 nM)"
experimental_result = 5.49

[[record]]
sequence_chain = "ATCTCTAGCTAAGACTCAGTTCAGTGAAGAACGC"
tested_system = "RXRa homodimer (NR concentration 180 nM)"
experimental_result = 0.0167

[[record]]
sequence_chain = "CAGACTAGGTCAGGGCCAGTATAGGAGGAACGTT"
tested_system = "RXRa homodimer (NR concentration 180 nM)"
experimental_result = 1.3

[[record]]
sequence_chain = "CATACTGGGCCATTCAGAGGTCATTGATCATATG"
tested_system = "RXRa homodimer (NR concentration 180 nM)"
experimental_result = 3.85


For the next question, use this sequence.
Item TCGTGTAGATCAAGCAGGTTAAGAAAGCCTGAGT ; assay system RXRa homodimer (NR concentration 180 nM); PBM binding z-score reported as 0.247

---

Tested on: RARa:RXR (NR concentration 270 nM, RXRa partner concentration 90 nM)
assay_protocol: PBM binding z-score (relative to random genomic background probes); higher = stronger binding; sequences stand for … in GC…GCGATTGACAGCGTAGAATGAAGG
property_measured: PBM binding z-score
I only need the number, thanks.

[[record]]
sequence_chain = "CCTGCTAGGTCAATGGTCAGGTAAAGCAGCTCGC"
tested_system = "RARa:RXR (NR concentration 270 nM, RXRa partner concentration 90 nM)"
experimental_result = 1.93


Item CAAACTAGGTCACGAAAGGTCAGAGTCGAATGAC ; assay system RARa:RXR (NR concentration 270 nM, RXRa partner concentration 90 nM); PBM binding z-score reported as 6.97

---

System: RARg:RXRa (NR concentration 270 nM, RXRa partner concentration 90 nM)
assay_protocol: PBM binding z-score (relative to random genomic background probes); higher = stronger binding; sequences stand for … in GC…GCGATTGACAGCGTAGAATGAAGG
The label depends only on PBM binding z-score: Met if it is at least 2, Not met if it is smaller.

See these solved cases before continuing.
[[record]]
sequence_chain = "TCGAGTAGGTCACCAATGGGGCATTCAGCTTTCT"
tested_system = "RARg:RXRa (NR concentration 270 nM, RXRa partner concentration 90 nM)"
classification = "Met"

[[record]]
sequence_chain = "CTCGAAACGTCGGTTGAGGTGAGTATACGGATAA"
tested_system = "RARg:RXRa (NR concentration 270 nM, RXRa partner concentration 90 nM)"
classification = "Not met"


Dear colleague, could you confirm whether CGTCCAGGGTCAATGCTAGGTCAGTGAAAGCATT has PBM binding z-score at or above 2?
Met

Dear colleague, could you confirm whether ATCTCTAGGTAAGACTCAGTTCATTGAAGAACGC has PBM binding z-score at or above 2?
Not met

Dear colleague, could you confirm whether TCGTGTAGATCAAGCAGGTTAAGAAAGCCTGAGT has PBM binding z-score at or above 2?
Not met

Dear colleague, could you confirm whether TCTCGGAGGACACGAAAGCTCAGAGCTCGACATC has PBM binding z-score at or above 2?
Not met

Dear colleague, could you confirm whether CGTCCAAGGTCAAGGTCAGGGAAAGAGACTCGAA has PBM binding z-score at or above 2?
Met

Dear colleague, could you confirm whether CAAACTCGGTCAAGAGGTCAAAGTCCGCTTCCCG has PBM binding z-score at or above 2?
Met

Dear colleague, could you confirm whether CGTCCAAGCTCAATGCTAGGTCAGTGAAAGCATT has PBM binding z-score at or above 2?
Not met

Dear colleague, could you confirm whether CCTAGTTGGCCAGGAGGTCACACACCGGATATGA has PBM binding z-score at or above 2?
Met

---

Test system: PPARg:RXRa IVT, anti-PPARg (NR concentration 270 nM, RXRa partner concentration 90 nM)
assay_protocol: PBM binding z-score (relative to random genomic background probes); higher = stronger binding; sequences stand for … in GC…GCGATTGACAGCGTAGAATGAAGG
Examples of sequences with documented PBM binding z-score follow.
I only need the number, thanks.

Sample answers from the record:
[[record]]
sequence_chain = "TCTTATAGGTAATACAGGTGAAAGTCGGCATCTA"
property_measured = "PBM binding z-score"
experimental_result = 3.44

[[record]]
sequence_chain = "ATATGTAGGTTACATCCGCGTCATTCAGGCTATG"
property_measured = "PBM binding z-score"
experimental_result = 7.28

[[record]]
sequence_chain = "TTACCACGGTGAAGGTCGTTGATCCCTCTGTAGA"
property_measured = "PBM binding z-score"
experimental_result = 1.1


Data point: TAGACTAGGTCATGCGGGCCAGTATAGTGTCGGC ; PBM binding z-score = 6.59

Data point: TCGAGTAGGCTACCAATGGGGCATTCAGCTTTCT ; PBM binding z-score = 0.414

Data point: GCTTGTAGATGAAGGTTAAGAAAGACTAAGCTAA ; PBM binding z-score = 0.405

Data point: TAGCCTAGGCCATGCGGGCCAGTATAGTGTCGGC ; PBM binding z-score = -0.0851

Data point: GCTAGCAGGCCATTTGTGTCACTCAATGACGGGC ; PBM binding z-score = 0.556

---

Examples of sequences with documented PBM binding z-score follow.
System: VDR:RXRa (NR concentration 270 nM, RXRa partner concentration 90 nM)
assay_protocol: PBM binding z-score (relative to random genomic background probes); higher = stronger binding; sequences stand for … in GC…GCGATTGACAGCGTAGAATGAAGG

Sample answers from the record:
[[record]]
sequence_chain = "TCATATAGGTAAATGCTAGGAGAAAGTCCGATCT"
experimental_result = 0.71

[[record]]
sequence_chain = "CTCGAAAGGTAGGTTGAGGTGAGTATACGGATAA"
experimental_result = 0.309

[[record]]
sequence_chain = "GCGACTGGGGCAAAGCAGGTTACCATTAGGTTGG"
experimental_result = -0.0809

[[record]]
sequence_chain = "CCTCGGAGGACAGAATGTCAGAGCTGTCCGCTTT"
experimental_result = -0.778

[[record]]
sequence_chain = "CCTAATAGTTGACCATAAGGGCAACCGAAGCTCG"
experimental_result = 0.926


Data point: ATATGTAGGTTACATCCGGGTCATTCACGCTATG ; PBM binding z-score = 4.35

Data point: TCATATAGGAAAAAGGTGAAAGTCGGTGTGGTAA ; PBM binding z-score = 1.21

Data point: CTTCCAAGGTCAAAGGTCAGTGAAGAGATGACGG ; PBM binding z-score = 6.57

Data point: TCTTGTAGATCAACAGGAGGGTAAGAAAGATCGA ; PBM binding z-score = 0.029

The values you see were collected from the supplement of paper PMC6555819.
